Tested on: UACC-257 melanoma
Test: NCI-60 one-dose screen, 48 h (100 = growth as untreated, 0 = no growth, -100 = all killed)
Conditions: 10 µM unless noted
This is part of a sample that, as a whole, favours compounds with a hit. Of some 83,000 tested, about 20% had one in any assay.
READOUT KIND: growth (%)
Number in %, nothing else.

Would you please look over these solved cases?
{"COMPOUND": "COc1nc2ccc(C)cc2cc1-c1nc2c(cnn2-c2ccc(Br)cc2)c(=O)[nH]1", "growth (%)": 47.4}
{"COMPOUND": "Cc1c(C(=O)NCCN2CCOCC2)cn2ncnc(Oc3ccc(NC(=O)Nc4ccc(Cl)c(C(F)(F)F)c4)cc3)c12", "growth (%)": 24.3}
{"COMPOUND": "Cc1ccc(/C=C(\\C#N)n2nc3cccc(F)c3n2)cc1", "growth (%)": 97.7}

Inquiry: Record request: growth value, item c1ccc(Nc2cc(-c3cccnc3)[nH]n2)cc1
Reply text: 100

Inquiry: Param item: O=c1c2cc(F)ccc2sc2c(N3CCNCC3)nc3ccccc3c12
Reply text: 92.1
